tested-on: the molecule itself
assay: SEC; Superose 6 10/300 GL Increase; 20 mM Tris-Cl pH 8.0, 150 mM NaCl, 0.5 mM TCEP; salt titration up to 1 M NaCl
Kindly supply the reported stoichiometry N values for the records listed here.
Respond using a number only.

Any idea what stoichiometry N was measured for ∆90 PGAM5 (residues 91–289), isolated phosphatase domain, wild type (domain or fragment, UniProt Q96HS1 91-289, looked up, PGAM5 long isoform (PGAM5L), residues 91-289, phosphatase domain; His6 followed by a TEV site (ENLYFQS); cleavage not described; also called Δ90 PGAM5; source: E. coli BL21 DE3 pLysS, purified (Ni-NTA, SEC on Superose 6)) HYKAKATRHIFLIRHSQYHVDGSLEKDRTLTPLGREQAELTGLRLASLGLKFNKIVHSSMTRAIETTDIISRHLPGVCKVSTDLLREGAPIEPDPPVSHWKPEAVQYYEDGARIEAAFRNYIHRADARQEEDSYEIFICHANVIRYIVCRALQFPPEGWLRLSLNNGSITHLVIRPNGRVALRTLGDTGFMPPDKITRS ?
2

Entry to check: ∆48 PGAM5 Y198E (domain or fragment, UniProt Q96HS1 49-289, looked up, PGAM5 long isoform (PGAM5L), residues 49-289, Y198E; also called ∆48 Y198E; source: E. coli BL21 DE3 pLysS, purified (Ni-NTA, SEC)) GGARPGPGVWDPNWDRREPLSLINVRKRNVESGEEELASKLDHYKAKATRHIFLIRHSQYHVDGSLEKDRTLTPLGREQAELTGLRLASLGLKFNKIVHSSMTRAIETTDIISRHLPGVCKVSTDLLREGAPIEPDPPVSHWKPEAVQYEEDGARIEAAFRNYIHRADARQEEDSYEIFICHANVIRYIVCRALQFPPEGWLRLSLNNGSITHLVIRPNGRVALRTLGDTGFMPPDKITRS
2

Entry to check: ∆48 PGAM5 R65A (domain or fragment, UniProt Q96HS1 49-289, looked up, PGAM5 long isoform (PGAM5L), residues 49-289, R65A; also called ∆48 R65A; source: E. coli BL21 DE3 pLysS, purified (Ni-NTA, SEC)) GGARPGPGVWDPNWDRAEPLSLINVRKRNVESGEEELASKLDHYKAKATRHIFLIRHSQYHVDGSLEKDRTLTPLGREQAELTGLRLASLGLKFNKIVHSSMTRAIETTDIISRHLPGVCKVSTDLLREGAPIEPDPPVSHWKPEAVQYYEDGARIEAAFRNYIHRADARQEEDSYEIFICHANVIRYIVCRALQFPPEGWLRLSLNNGSITHLVIRPNGRVALRTLGDTGFMPPDKITRS
2
